Some compounds, each annotated with its measured Osteoblast Cell Proliferation, 3H-thymidine incorporation vs control (100%).
Tested on: mouse (MC3T3-E1) and human (TE-85) osteoblast-line cells
Format: cell-based
CONDITION DESCRIPTION: 10^-10
Return type: number; implicit unit %.

compound="O=C(c1ccc(Cl)c(Cl)c1)N1CCCC(c2ccc(Cl)cc2)=N1 [Compound 200]" result=88
compound="COc1ccc(C(=O)N2CCCC(c3ccc(Cl)cc3)=N2)cc1 [Compound 194]" result=144
compound="O=P(OC1CCCC1)(c1ccccc1)N1CCCC(c2ccc(Cl)c(Cl)c2)=N1 (centres unmarked) [Compound 257]" result=114
compound="O=S(=O)(c1ccccc1)N1CCCC(c2ccc3c(c2)CCCC3)=N1 [Compound 90]" result=42

Next compound, Osteoblast Cell Proliferation, 3H-thymidine incorporation vs control (100%) to be filled in.
Return reported Osteoblast Cell Proliferation, 3H-thymidine incorporation vs control (100%); argument: CC(C)(C)c1ccc(C(=O)N2CCCC(c3ccccc3)=N2)cc1 [Compound 197]
52

* * *

System: mouse (MC3T3-E1) and human (TE-85) osteoblast-line cells
Format: cell-based
CONDITION DESCRIPTION: 10^-10
Excerpt: Compounds of the present invention have utility to treat osteoporosis through enhancement of bone calcification rather than traditional approaches which generally involve inhibition of bone degeneration or resorption. The compounds of the present invention have been evaluated as stimulators of proliferation of osteoblast cell and chick calivaria bone organ culture which is predictive of enhancement of bone mass and bone formation in vivo. […]
Reported Osteoblast Cell Proliferation, 3H-thymidine incorporation vs control (100%) values for a set of molecules
Reply numerically in %, unit not repeated.

Some molecules with known Osteoblast Cell Proliferation, 3H-thymidine incorporation vs control (100%) results, for comparison:
molecule="COC(=O)c1ccccc1S(=O)(=O)N1CCCC(c2ccc(Cl)c(Cl)c2)=N1 [Compound 47]" display_unit=% result=123
molecule="COP(=O)(c1ccccc1)N1CCCC(c2ccc(Cl)c(C(F)(F)F)c2)=N1 (stereo not drawn) [Compound 261]" display_unit=% result=111
molecule="Cc1ccc(S(=O)(=O)N2N=C(c3ccccc3)CC3CCCC32)cc1 (stereo not drawn) [Compound 156]" display_unit=% result=183
molecule="O=C(c1cccc(Cl)c1)N1CCCC(c2ccc(Cl)cc2)=N1 [Compound 199]" display_unit=% result=61
molecule="COc1ccc(C2=NN(S(=O)(=O)c3ccc4ccccc4c3)CCC2)cc1 [Compound 65]" display_unit=% result=80
molecule="O=C(c1ccc(Cl)c(Cl)c1)N1CCCC(c2ccc(Cl)c(Cl)c2)=N1 [Compound 216]" display_unit=% result=100
molecule="CCOP(=O)(c1ccccc1)N1CCCC(c2ccc(Cl)c(C(F)(F)F)c2)=N1 (stereo not drawn) [Compound 262]" display_unit=% result=141
molecule="COc1ccc(C2=NN(C(=O)c3cccc(Cl)c3)CCC2)cc1 [Compound 188]" display_unit=% result=137
molecule="COc1ccc(C(=O)N2CCCC(c3ccccc3)=N2)cc1 [Compound 183]" display_unit=% result=135
molecule="O=C(c1ccc([N+](=O)[O-])cc1)N1CCCC(c2ccc(Cl)c(Cl)c2)=N1 [Compound 217]" display_unit=% result=52

Please examine the following record next.
So what does the record say about Osteoblast Cell Proliferation, 3H-thymidine incorporation vs control (100%) for O=S(=O)(c1cc(Cl)ccc1Cl)N1CCCC(c2ccc(F)cc2)=N1 [Compound 11] ?
154

* * *

Measured log10 IC50 by item
ASSAYED TARGET: progestin receptor from rabbit uterus (Oryctolagus cuniculus, UniProt P06186)
Sequence (P06186 whole entry): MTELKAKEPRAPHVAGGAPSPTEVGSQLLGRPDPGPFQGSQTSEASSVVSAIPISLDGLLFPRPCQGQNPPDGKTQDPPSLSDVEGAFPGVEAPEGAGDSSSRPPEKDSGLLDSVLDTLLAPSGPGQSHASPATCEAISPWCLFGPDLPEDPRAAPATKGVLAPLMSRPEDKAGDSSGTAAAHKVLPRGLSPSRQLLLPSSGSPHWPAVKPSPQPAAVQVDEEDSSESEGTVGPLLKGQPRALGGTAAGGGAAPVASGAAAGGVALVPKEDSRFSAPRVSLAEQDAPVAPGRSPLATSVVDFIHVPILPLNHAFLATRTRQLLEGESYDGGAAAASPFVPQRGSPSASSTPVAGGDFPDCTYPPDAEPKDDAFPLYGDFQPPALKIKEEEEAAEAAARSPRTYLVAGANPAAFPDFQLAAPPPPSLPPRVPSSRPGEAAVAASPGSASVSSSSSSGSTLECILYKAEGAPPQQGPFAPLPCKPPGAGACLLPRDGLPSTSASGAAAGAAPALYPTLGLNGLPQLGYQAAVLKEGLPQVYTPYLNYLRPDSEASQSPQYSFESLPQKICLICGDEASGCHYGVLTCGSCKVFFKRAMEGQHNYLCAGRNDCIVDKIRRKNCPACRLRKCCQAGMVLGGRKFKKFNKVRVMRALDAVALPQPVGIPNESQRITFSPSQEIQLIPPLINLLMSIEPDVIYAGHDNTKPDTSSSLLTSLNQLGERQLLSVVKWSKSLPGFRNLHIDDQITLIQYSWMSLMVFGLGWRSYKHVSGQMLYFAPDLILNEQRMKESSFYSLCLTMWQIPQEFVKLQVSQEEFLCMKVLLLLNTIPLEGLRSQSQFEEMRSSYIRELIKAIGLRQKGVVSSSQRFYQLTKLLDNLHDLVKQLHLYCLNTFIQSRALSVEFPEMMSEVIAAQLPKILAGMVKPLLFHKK
Transform log10 | Measure IC50 | Unit nM

Recorded log10 IC50, per entry:
compound=O=S(=O)(c1ccc(C(F)(F)F)cc1)N1CCCC(c2ccc(Cl)c(C(F)(F)F)c2)=N1 assayed_target="progestin receptor from rabbit uterus (Oryctolagus cuniculus, UniProt P06186)" result=0.82
compound=O=S(=O)(c1ccc(Cl)c(Cl)c1)N1CCCC(c2ccc(Cl)cc2)=N1 assayed_target="progestin receptor from rabbit uterus (Oryctolagus cuniculus, UniProt P06186)" result=1.34
compound=O=S(=O)(c1ccc(I)cc1)N1CCCC(c2ccc(F)cc2)=N1 assayed_target="progestin receptor from rabbit uterus (Oryctolagus cuniculus, UniProt P06186)" result=1.75

Provide value of log10 IC50 for this record tested with progestin receptor from rabbit uterus (Oryctolagus cuniculus, UniProt P06186): CC1CCC(c2ccc(Cl)c(Cl)c2)=NN1S(=O)(=O)c1ccc(I)cc1 (centres unmarked)
-0.70

progestin receptor from rabbit uterus (Oryctolagus cuniculus, UniProt P06186) / log10 IC50 / COP(=O)(c1ccccc1)N1CCCC(c2ccccc2)=N1 (centres unmarked) : value?
4.00

* * *

ASSAYED TARGET: progestin receptor from rabbit uterus (Oryctolagus cuniculus)
Construct: Cytosolic progestin receptor were obtained by mixing rabbit uterine tissue with a Tris buffer; from tissue; host or cells: rabbit uterus cytosol
EXPERIMENT SUMMARY: Progestin receptor binding (3H-R5020 displacement)
CONDITION DESCRIPTION: rabbit uterine cytosol, 4° C., 18 h, read-out: IC50: Binding affinity for the progestin receptor from rabbit uterus
OBSERVATION TYPE: pIC50
// field semantics: pIC50 = negative decimal log of concentration (mol/L)

// below: answered molecules
molecule="O=S(=O)(c1cc(Cl)ccc1Cl)N1CCCC(c2ccc(F)cc2)=N1 [Compound 11]" result=7.70
molecule="COC(=O)c1ccc(S(=O)(=O)N2CCCC(c3ccc(Cl)c(Cl)c3)=N2)cc1 [Compound 273]" result=8.47
molecule="O=S(=O)(c1ccc(I)cc1)N1N=C(c2ccc(Cl)cc2)CC2CC=CC21 (stereo not drawn) [Compound 160]" result=7.49
molecule="O=S(=O)(c1ccc2ccccc2c1)N1CCCC(c2ccccc2)=N1 [Compound 51]" result=6.69
molecule="Cc1ccc(S(=O)(=O)N2CCCC(c3ccc(Cl)c(Cl)c3)=N2)cc1 [Compound 41]" result=8.71
molecule="O=C(c1ccc(Cl)c(Cl)c1)N1CCCC(c2ccc(F)cc2)=N1 [Compound 205]" result=6.58
molecule="O=S(=O)(c1ccc(F)cc1)N1CCCC(c2ccc(F)cc2)=N1 [Compound 18]" result=6.69
molecule="Cc1ccc(S(=O)(=O)N2CCCC(c3ccc(F)cc3)=N2)cc1 [Compound 9]" result=6.44

Recorded pIC50 of COC(=O)c1ccccc1S(=O)(=O)N1CCCC(c2ccc(F)cc2)=N1 [Compound 26] , please.
6.35

Need pIC50, item COC(=O)c1ccccc1S(=O)(=O)N1CCCC(c2ccc(Cl)cc2)=N1 [Compound 29]
6.61

May I ask what pIC50 has been recorded for O=C(c1cccc(C(F)(F)F)c1)N1CCCC(c2ccc(Cl)c(Cl)c2)=N1 [Compound 218] ?
5.70

Given the molecule COP(=O)(c1ccccc1)N1CCCC(c2ccc(Cl)c(C(F)(F)F)c2)=N1 (stereo not drawn) [Compound 261] , what is its reported pIC50?
6.88

* * *

Observed log10 of IC50 for progestin receptor from rabbit uterus (Oryctolagus cuniculus), reported per entry below.
Kindly note that the scale is log10 and the underlying IC50 is in nM.

molecule="O=S(=O)(c1ccccc1)N1CCCC(c2ccc(-c3ccccc3)cc2)=N1 [Compound 86]" assayed_target="progestin receptor from rabbit uterus (Oryctolagus cuniculus)" result=2.36
molecule="O=S(=O)(c1ccc(C(F)(F)C(F)(F)F)cc1)N1CCCC(c2ccc(Cl)c(Cl)c2)=N1 [Compound 272]" assayed_target="progestin receptor from rabbit uterus (Oryctolagus cuniculus)" result=2.52
molecule="COc1ccc(C(=O)N2CCCC(c3ccccc3)=N2)cc1 [Compound 183]" assayed_target="progestin receptor from rabbit uterus (Oryctolagus cuniculus)" result=5.00

Hi! What's the reported log10 of IC50 for Cc1ccc(S(=O)(=O)N2N=C(c3ccccc3)CC3C4C5C=CC(C5)C4CC32)cc1 (centres unmarked) [Compound 157] on progestin receptor from rabbit uterus (Oryctolagus cuniculus)?
2.88

Request - read-out log10 of IC50 | tested on progestin receptor from rabbit uterus (Oryctolagus cuniculus) | molecule O=[N+]([O-])c1ccc(S(=O)(=O)N2CCCC(c3ccc(F)cc3)=N2)cc1 [Compound 10]
3.02

Query log10 of IC50 on progestin receptor from rabbit uterus (Oryctolagus cuniculus) for O=S(=O)(c1ccc(C(F)(F)F)cc1)N1CCCC(c2ccc(Cl)c(Cl)c2)=N1 [Compound 97]
0.00

// lookup log10 of IC50 | system=progestin receptor from rabbit uterus (Oryctolagus cuniculus) | key= CCCCc1ccc(C2=NN(S(=O)(=O)c3ccc(I)cc3)CCC2)cc1 [Compound 71]
4.00

Query for progestin receptor from rabbit uterus (Oryctolagus cuniculus): what log10 of IC50 does the record show for O=P(OC1CCCC1)(c1ccccc1)N1CCCC(c2ccc(Cl)c(Cl)c2)=N1 (centres unmarked) [Compound 257] ?
2.48

* * *

Tested on: mouse (MC3T3-E1) and human (TE-85) osteoblast-line cells
Format: cell-based
CONDITION DESCRIPTION: 10^-10
We begin with a simple list: items and their reported Osteoblast Cell Proliferation, 3H-thymidine incorporation vs control (100%).
Just the number in %, nothing appended.

Can you look up the measured Osteoblast Cell Proliferation, 3H-thymidine incorporation vs control (100%) of O=S(=O)(c1ccccc1)N1CCCC(c2ccc(Cl)c(Cl)c2)=N1 for me?
85

// query Osteoblast Cell Proliferation, 3H-thymidine incorporation vs control (100%) value for entry CCCCCCc1ccc(S(=O)(=O)N2CCCC(c3ccc(Cl)c(Cl)c3)=N2)cc1
181

Tell me the measured Osteoblast Cell Proliferation, 3H-thymidine incorporation vs control (100%) of O=S(=O)(/C=C/c1ccccc1)N1CCCC(c2ccc3c(c2)CCCC3)=N1 , please.
109
